System: COLO 205 colon
ASSAY_PROCEDURE: NCI tumour cell line growth inhibition, 48 h
MEASURED_METRIC: TGI

Respectfully, I request TGI for each entry included below.
1. N#Cc1cccc(N2C(=O)C3C4C=CC(C3C2=O)C2C(=O)N(c3cccc(C#N)c3)C(=O)C42)c1 (centres undefined)
2. CSc1nc(=O)c2nc(-c3cccs3)c(-c3cccs3)nc2n1C
3. COc1ccc2c(c1)CN1CCc3c(cc(OC)c(OC)c3OC)C1C2 (centres undefined)

Reply:
> 63.1 µM
> 100 µM
> 100 µM

###

Test system: CCRF-CEM leukemia
ASSAY_PROCEDURE: NCI tumour cell line growth inhibition, 48 h
MEASURED_METRIC: TGI

Observe how each entry below is paired with its result.
N#Cc1cccc(C2C3=C(COC3=O)N(CCO)c3cc4c(cc32)OCO4)c1 (stereo not drawn)
> 50 µM
CN1C2=Nc3n(c4ccccc4[n+]3C)CN2c2ccccc21
> 100 µM
COc1ccc([C@]23CCC4(OCC(C)(C)CO4)[C@H]4CON(O[C@H](O[C@@H]5CCCCC5C(C)(C)c5ccccc5)C2)[C@@H]43)cc1OC (stereo partly drawn)
> 100 µM

Please state TGI for every compound in the list that follows.
1. c1ccc2c(c1)cc1ccc3cccc4ccc2c1c34
2. CC(C)=CCC[C@@H](C)C1=C(Nc2ccccc2F)C(O)=C(C)C(=O)C1=O
3. Nc1c2ccccc2nc2c(C(=O)Nc3ccc(S(N)(=O)=O)cc3)cccc12
4. COC1(CC[C@H](C)COC2OC(CO)C(O)C(O)C2O)O[C@H]2C[C@H]3[C@@H]4CC=C5C[C@@H](OC6OC(CO)C(OC7OC(C)C(O)C(O)C7O)C(O)C6OC6OC(C)C(O)C(O)C6O)CC[C@]5(C)[C@H]4CC[C@]3(C)[C@H]2[C@@H]1C (stereo partly drawn)
5. CCOC(=O)/C=C/c1cccc(F)c1

Reply:
1. > 100 µM
2. 3.9 µM
3. > 100 µM
4. > 37.1 µM
5. > 100 µM

From: PubChem BioAssay (NCI)
